From: ChEMBL document CHEMBL1201862

- System: OVCAR-8
- Assay Info: NCI tumour cell line growth inhibition, 48 h
Activity calls are given as the source filed them. Rule as the data show it: active = GI50 up to about 1.1 µM and inactive = higher. Residues, ends and D or L forms follow the SMILES beside them. *: point of attachment. Boc = CC(C)(C)OC(=O)*
Property Measured: GI50

N#Cc1ccc(/C=N\N2C(=O)c3ccccc3C2=O)cc1: > 100 µM (inactive)
OC(c1ccccc1)(c1ccccc1)c1nccc2ccccc12: 37.8 µM (inactive)
C/C(CC(=O)NCCc1ccccc1)=N\NC(=O)C[n+]1ccccc1: > 100 µM (inactive)
C1OCN2c3nonc3N3COCN4c5nonc5N1C2C43 (stereo not given): > 100 µM (inactive)
N/N=C1/C2CN3CCN(C2)CC1(c1ccc([N+](=O)[O-])cc1)C3: > 100 µM (inactive)

Ask | Query: GI50; subject: CC(C)=C[C@H]1CCC2(OCCO2)[C@]1(C)COCc1ccccc1
Reply | 38.6 µM (inactive)

Ask | Query: GI50; subject: CC12C/C(=C\c3ccccc3)C(=O)C3C1CCCC32
Reply | > 100 µM (inactive)

Ask | Query: GI50; subject: COC(=O)[C@]1(c2cc3ccccc3[nH]2)CC2CN(C(=O)OCc3ccccc3)C1C=C2OC (stereo not given in full)
Reply | 43.4 µM (inactive)

Ask | Query: GI50; subject: CCCC(=O)c1c(NOC2OCC(OC(C)=O)C(OC(C)=O)C2OC(C)=O)nc(OC)n(C)c1=O (stereo not given)
Reply | > 100 µM (inactive)

Ask | Query: GI50; subject: CCO[C@@]12CCC3CC4CC[C@@](OCC)(O1)C4C32 (stereo not given in full)
Reply | > 100 µM (inactive)

Ask | Query: GI50; subject: Cc1cn(C2CC(N)C(C(=O)O)O2)c(=O)[nH]c1=O (stereo not given)
Reply | > 100 µM (inactive)

Ask | Query: GI50; subject: CCCCCCCCCCCCP(=O)(O)OCC(N)C(=O)O (stereo not given)
Reply | 35.5 µM (inactive)

Ask | Query: GI50; subject: O=C(O)c1ccccc1Cc1ccco1
Reply | > 100 µM (inactive)

Ask | Query: GI50; subject: CS(=O)(=O)OCCCCOS(=O)(=O)CF
Reply | > 100 µM (inactive)

Ask | Query: GI50; subject: O=C(Nc1ccn(C2CC(I)C(COC(c3ccccc3)(c3ccccc3)c3ccccc3)O2)c(=O)n1)c1ccccc1 (stereo not given)
Reply | 9.25 µM (inactive)

Ask | Query: GI50; subject: CCOc1cc(NC(C)=O)ccc1C(=O)NNC(=O)c1ccccc1OC(C)=O
Reply | 6.3 µM (inactive)

Ask | Query: GI50; subject: OCC1OC(O)C(/N=C\c2ccc3c(c2)OCO3)C(O)C1O (stereo not given)
Reply | > 100 µM (inactive)

Ask | Query: GI50; subject: S=C1CSc2c(cnc3ccccc23)N1
Reply | 65.9 µM (inactive)

Ask | Query: GI50; subject: COC(=O)C(Cc1c[nH]c2ccccc12)NC(=O)C(Cc1c[nH]c2ccccc12)NC(=O)C(Cc1c[nH]c2ccccc12)NC(=O)C(Cc1c[nH]c2ccccc12)NC(=O)C(Cc1c[nH]c2ccccc12)NC(=O)C(Cc1c[nH]c2ccccc12)NC(=O)OC(C)(C)C (stereo not given) (Boc-WWWWWW-OMe; configuration not given here)
Reply | 92.9 µM (inactive)

Ask | Query: GI50; subject: Oc1ccc2c3c1OC1c4[nH]ncc4C[C@H]4[C@@H](C2)N(CC2CC2)CC[C@]314 (stereo not given in full)
Reply | > 100 µM (inactive)
